Entry source: the supplement of paper PMC9694430

Recorded measurements of thermal shift delta Tm, one per entry
system: LOC_OS01G10900-cb004; experiment: thermal shift delta Tm vs DMSO control; higher = stronger stabilization (binding); conditions: 12.5 µM; protein concentration 2 µM;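 note: purified Escherichia coli-expressed rice kinase domain construct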

molecule: Cn1cnc2c(F)c(Nc3ccc(Br)cc3Cl)c(C(=O)NOCCO)cc21 [Selumetinib (AZD6244)]
thermal shift delta Tm, °C: 0.43

molecule: N#C/C(=C\c1ccc(O)c(O)c1)C(=O)NCc1ccccc1 [AG-490 (Tyrphostin B42)]
thermal shift delta Tm, °C: 0.93

molecule: C[C@@H](Oc1cc(-n2cnc3ccc(CN4CCN(C)CC4)cc32)sc1C(N)=O)c1ccccc1C(F)(F)F
thermal shift delta Tm, °C: 3.48

molecule: Cc1ccc(S(=O)(=O)/C=C/C#N)cc1
thermal shift delta Tm, °C: -0.53

molecule: COc1ccc([C@@H]2OC[C@H]3[C@@H]2CO[C@@H]3c2ccc(O[C@@H]3O[C@H](CO)[C@@H](O)[C@H](O)[C@H]3O)c(OC)c2)cc1OC [Forsythin]
thermal shift delta Tm, °C: 0.51

molecule: CC#CC(=O)Nc1ccc2ncnc(Nc3cccc(Br)c3)c2c1
thermal shift delta Tm, °C: 2.56

molecule: O=C(/C=C/c1ccc(O)c(O)c1)c1ccc(O)cc1O [Butein]
thermal shift delta Tm, °C: 1.41

molecule: O=C1c2ccc(Nc3ccc(F)cc3F)cc2CCc2ccc(OC[C@H](O)CO)cc21 [Skepinone-L]
thermal shift delta Tm, °C: 1.14

molecule: Cc1cc(Nc2ncc(Cl)c(Nc3ccccc3S(=O)(=O)C(C)C)n2)c(OC(C)C)cc1C1CCNCC1 [Ceritinib (LDK378)]
thermal shift delta Tm, °C: 0.21

molecule: Cn1cc(-c2ccc3ncc(Cc4ccc5ncccc5c4)n3n2)cn1
thermal shift delta Tm, °C: 6.36

molecule: O=C1NC(=O)/C(=C/c2cccc(C(F)(F)F)c2)S1
thermal shift delta Tm, °C: 0.2

molecule: COc1cc2c(c(OC)c1OC)-c1c(cc3c(c1OC)OCO3)CC(C)C(C)C2 (stereo unspecified) [Schisandrin B (Sch B)]
thermal shift delta Tm, °C: 0.21

molecule: c1cn2cc(-c3ccc4cn[nH]c4c3)nc(Nc3ccc(N4CCOCC4)cc3)c2n1 [Entospletinib (GS-9973)]
thermal shift delta Tm, °C: 0.19

molecule: CCCCCCCCCCCCCCCCn1cc[n+](Cc2ccccc2)c1C
thermal shift delta Tm, °C: -4.55

molecule: FC(F)c1nc2ccccc2n1-c1nc(N2CCOCC2)nc(N2CCOCC2)n1
thermal shift delta Tm, °C: 0.18

molecule: Cc1ccc(Nc2nccc(N(C)c3ccc4c(C)n(C)nc4c3)n2)cc1S(N)(=O)=O [Pazopanib]
thermal shift delta Tm, °C: 1.67

molecule: Cn1ncc(Cl)c1-c1cc(C(=O)N[C@H](CN)Cc2cccc(F)c2)sc1Cl
thermal shift delta Tm, °C: 0.19

molecule: N#Cc1cnc(Nc2cc(NC[C@H]3CNCCO3)c(C(F)(F)F)cn2)cn1
thermal shift delta Tm, °C: 0.47

molecule: CC(C)(CO)n1cc(C(=O)c2cncc(NC(=O)Cc3ccc(Cl)cn3)c2)c2cnc(N)nc21
thermal shift delta Tm, °C: 0.35

molecule: CO[C@H]1C[C@@H]2CC[C@@H](C)[C@@](O)(O2)C(=O)C(=O)N2CCCC[C@H]2C(=O)O[C@H]([C@H](C)C[C@@H]2CC[C@@H](OC(=O)C(C)(CO)CO)[C@H](OC)C2)CC(=O)[C@H](C)/C=C(\C)[C@@H](O)[C@@H](OC)C(=O)[C@H](C)C[C@H](C)/C=C/C=C/C=C/1C
thermal shift delta Tm, °C: 0.53

molecule: CN1CC(O)C2=C/C(=N/NC(N)=O)C(=O)C=C21 (stereo unspecified) [Carbazochrome]
thermal shift delta Tm, °C: -0.04

molecule: Cc1[nH]nc2ccc(-c3cncc(OC[C@@H](N)Cc4ccccc4)c3)cc12
thermal shift delta Tm, °C: 0.37

molecule: C[C@H](NC(=O)/C(C#N)=C/c1cccc(Br)n1)c1ccccc1
thermal shift delta Tm, °C: -0.05

molecule: CCN1CCN(Cc2ccc(C(=O)Nc3ccc(C)c(Oc4ccc5c(c4)CC(=O)N5)c3)cc2C(F)(F)F)CC1
thermal shift delta Tm, °C: 2.1

molecule: O=C(O)c1ccc(-c2c[nH]c3ncc(-c4ccccc4)cc23)cc1C1CCCC1
thermal shift delta Tm, °C: 0.46

molecule: CNC(=O)c1cc(COc2nnc(Nc3ccc(Cl)cc3)c3ccoc23)ccn1 [Telatinib]
thermal shift delta Tm, °C: 0.29

====

tested on: LOC_OS01G70970-cb002; experiment: thermal shift delta Tm vs DMSO control; higher = stronger stabilization (binding); settings: 12.5 µM; protein concentration 2 µM

given smiles: COc1cc2ncnc(Nc3ccc(Cl)cc3F)c2cc1OC
unit symbol: °C
thermal shift delta Tm: 0.2
//
given smiles: C=CC(=O)N1CC[C@@H](Oc2nc(Nc3ccc(N4CCC(N5CCN(C)CC5)CC4)cc3)c(C(N)=O)nc2CC)C1
unit symbol: °C
thermal shift delta Tm: 5.67
//
given smiles: Cc1nc(N)sc1-c1ccnc(Nc2ccc(N3CCOCC3)cc2)n1
unit symbol: °C
thermal shift delta Tm: 1.58
//
given smiles: Cc1ccc(Nc2nccc(N(C)c3ccc4c(C)n(C)nc4c3)n2)cc1S(N)(=O)=O
unit symbol: °C
thermal shift delta Tm: 0.44
//
given smiles: CCN1C(=O)CNc2ncc(-c3ccc(-c4nc[nH]n4)nc3C)nc21
unit symbol: °C
thermal shift delta Tm: 0.01
//
given smiles: CNC(=O)c1ccccc1Sc1ccc2c(/C=C/c3ccccn3)n[nH]c2c1
unit symbol: °C
thermal shift delta Tm: 0.68
//
given smiles: COc1cc2ncnc(Nc3cccc(Cl)c3)c2cc1OC
unit symbol: °C
thermal shift delta Tm: 0.55
//
given smiles: CCCCCCCCCCCCc1ccc(S(=O)(=O)Nc2nncs2)cc1
unit symbol: °C
thermal shift delta Tm: 0.27

====

tested on: LOC_OS02G07810-cb001; test: thermal shift delta Tm vs DMSO control; higher = stronger stabilization (binding); details: 12.5 µM; protein concentration 2 µM

compound: CCC[C@H](NC(=O)/C(C#N)=C/c1cccc(Br)n1)c1ccccc1 [Degrasyn (WP1130)]
study target: LOC_OS02G07810-cb001
unit symbol: °C
thermal shift delta Tm: 0.68
--
compound: CCS(=O)(=O)N1CC(CC#N)(n2cc(-c3ncnc4[nH]ccc34)cn2)C1
study target: LOC_OS02G07810-cb001
unit symbol: °C
thermal shift delta Tm: 0.37
--
compound: COc1cc2ccc(=O)oc2cc1O
study target: LOC_OS02G07810-cb001
unit symbol: °C
thermal shift delta Tm: -1.02
--
compound: CC(C)(O)CNc1ncc(-c2ccnc(Nc3ccncc3)n2)c(CC2CC2)n1
study target: LOC_OS02G07810-cb001
unit symbol: °C
thermal shift delta Tm: -0.03
--
compound: O=C1NC(=O)C(c2cnc3ccccn23)=C1c1cn2c3c(cc(F)cc13)CN(C(=O)N1CCCCC1)CC2
study target: LOC_OS02G07810-cb001
unit symbol: °C
thermal shift delta Tm: 1.59
--
compound: Cc1ccc(C(=O)Nc2ccc(CN3CCN(C)CC3)c(C(F)(F)F)c2)cc1C#Cc1cnc2[nH]ncc2c1 [GZD824 Dimesylate]
study target: LOC_OS02G07810-cb001
unit symbol: °C
thermal shift delta Tm: 0.8

====

test system: LOC_OS01G60330-cb001; experiment: thermal shift delta Tm vs DMSO control; higher = stronger stabilization (binding); conditions: 12.5 µM; protein concentration 2 µM
Think of 0.9 °C as a floor: if thermal shift delta Tm stands on it or above, it is MET; beneath it, NOT MET.

given smiles: Cc1[nH]c(/C=C2\C(=O)Nc3ccc(S(=O)(=O)N(C)c4cccc(Cl)c4)cc32)c(C)c1C(=O)N1CCN(C)CC1
study target: LOC_OS01G60330-cb001
label class: MET
--
given smiles: Cc1cc2c(F)c(Oc3ncnn4cc(OC[C@@H](C)O)c(C)c34)ccc2[nH]1
study target: LOC_OS01G60330-cb001
label class: MET
--
given smiles: C[C@@H]1COCCN1c1cc(=O)n2c(n1)N(Cc1cncc(Cl)c1)[C@H](C(F)(F)F)CC2
study target: LOC_OS01G60330-cb001
label class: MET
--
given smiles: C=CC(=O)Nc1cccc(Nc2nc(Nc3ccc(NC4CN(CCF)C4)cc3OC)ncc2C(F)(F)F)c1
study target: LOC_OS01G60330-cb001
label class: NOT MET

====

system: LOC_OS02G07810-cb001; assay: thermal shift delta Tm vs DMSO control; higher = stronger stabilization (binding); settings: 12.5 µM; protein concentration 2 µM
Recorded measurements of thermal shift delta Tm, one per entry

compound: CS(=O)(=O)c1cccc(CNc2nc(Nc3ccc4c(c3)CCC(=O)N4)ncc2C(F)(F)F)c1
study target: LOC_OS02G07810-cb001
thermal shift delta Tm, °C: 1.43
--
compound: CN(C)C/C=C/C(=O)Nc1cc2c(Nc3ccc(F)c(Cl)c3)ncnc2cc1O[C@H]1CCOC1 [Afatinib (BIBW2992)]
study target: LOC_OS02G07810-cb001
thermal shift delta Tm, °C: 0.56
--
compound: N#Cc1c(Oc2ccc(F)c(NC(=O)Cc3cccc(C(F)(F)F)c3)c2)ccc2nc(NC(=O)C3CC3)sc12
study target: LOC_OS02G07810-cb001
thermal shift delta Tm, °C: 0.79
--
compound: Cc1ccc(Nc2nccc(N(C)c3ccc4c(C)n(C)nc4c3)n2)cc1S(N)(=O)=O
study target: LOC_OS02G07810-cb001
thermal shift delta Tm, °C: 1.5
